Attribution: patent US9096686B2

Assay: Plasma pharmacokinetics after single oral dose in mice
Format: in vivo
Details: mouse, single oral 100 mg kg-1 dose, plasma
readoutType: half-life (h)

compoundstring=C[C@@H]1CN(c2ccc(C(=O)Nc3ccc(Cl)c(NC(=O)c4cccc(Cl)c4)c3)cn2)C[C@H](C)N1 readouttype=half-life unittext=h resultvalue=22
